- assayMethodText: modulators of HCV replicon luciferase signal, primary screen, HCV replication inhibitor project, Huh7 cells, luciferase reporter (AID 1109);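 further: huh7 hepatoma cells harbouring a luciferase neomycin HCV replicon reporter; luciferase luminescence as measure of HCV replicon replication; test concentration not given here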
- setupConditions: 48 h, higher = more signal
Cut-off -0.6 on z-score, inclusive. At or above means YES; below means NO.

| compound | classAssignment |
| --- | --- |
| CN1C(=O)C2C=CC(C(O)c3cccc4ccccc34)N(N3CCCCC3)C2C1=O (centres undefined) | YES |
| CCOc1cc(C(O)C2C=CC3C(=O)N(C)C(=O)C3N2Nc2ccccc2)ccc1O (centres undefined) | YES |
| CCOC(=O)[C@H]1[C@@H]2C(=O)N3CCC[C@H]3[C@H](O[Si](C(C)C)(C(C)C)C(C)C)[C@H]2C=C2CCN(S(=O)(=O)c3ccc(C)cc3)C[C@H]21 | NO |
| COCCCNC(=O)[C@]1(CCS(=O)(=O)c2ccccc2)N=C(c2ccc(OCCCO)cc2)O[C@@H]1c1ccccc1N=[N+]=[N-] | YES |
| CN1C(=O)C2C=CC(C(O)c3cccc(O)c3)N(Nc3ccccc3)C2C1=O (centres undefined) | YES |
| CC(C)N1C(=O)C[C@@](C(=O)NCCCN(C)C)(c2ccc([N+](=O)[O-])cc2)[C@H]1c1ccc(CO)cc1 | YES |
| COC(=O)[C@@]1(Cc2ccc(F)cc2)[C@H]2c3cc(C(=O)N4CCCC4)n(CCN4CNCC4=O)c3C[C@H]2CN1C(=O)c1ccccc1 | NO |
| Cc1cc(C)c(C(O)C2C=CC3C(=O)NC(=O)C3N2Nc2ccc(Cl)cc2Cl)c(C)c1 (centres undefined) | YES |
| C=C(/C(=C/C[C@H](OC(C)=O)c1ccccc1OCCO)c1cc(C(=O)OC)ccc1OC)C(C)C | NO |
| O=C1O[C@H](c2ccccc2)[C@H](c2ccccc2)N2[C@H]1[C@@H](C(=O)Nc1nc3ccccc3s1)[C@]1(C(=O)Nc3ccccc31)[C@H]2c1ccc(OCCO)cc1 | NO |
| Cc1ccc(S[C@]2(C(=O)O)CC(=O)N(Cc3cc(C(F)(F)F)cc(C(F)(F)F)c3)[C@@H]2c2ccc(CO)cc2)cc1 | YES |
| COC(=O)[C@@]1(Cc2ccccc2)[C@H]2c3cc(C(=O)N(C)C)n(Cc4c(CO)[nH]cc(C)c4=O)c3C[C@H]2CN1C(=O)c1ccccc1 | NO |
| N#Cc1ccc(NN2C(C(O)c3ccc(F)cc3)C=CC3C(=O)N(c4ccccc4)C(=O)C32)cc1 (centres undefined) | YES |
| O=C1O[C@@H](c2ccccc2)[C@@H](c2ccccc2)N2[C@@H](c3ccc(O)cc3)[C@]3(C(=O)Nc4ccc(C#CC5(O)CCCCCC5)cc43)[C@@H](C(=O)NC[C@H](O)c3ccccc3)[C@H]12 | NO |
| COc1cc(OC)c(C(O)C2C=CC3C(=O)N(C)C(=O)C3N2NC(=O)OC(C)(C)C)cc1Br (centres undefined) | NO |
| [N-]=[N+]=NCc1ccccc1[C@H]1OC(c2ccc(OCCCO)cc2)=N[C@@]1(CCS(=O)(=O)c1ccccc1)C(=O)N1CCCCC1 | NO |
| COC(=O)[C@@]1(Cc2ccccc2)[C@H]2c3cc(C(=O)N(C)C)n(CCN4CNCC4=O)c3C[C@H]2CN1C(=O)c1ccccc1 | YES |
| COC(=O)[C@@]1(Cc2ccc(OC)cc2)[C@H]2c3cc(C(=O)N(C)C)n(C[C@H](O)CO)c3C[C@H]2CN1C(=O)c1ccccc1 | NO |
| C=CCC(OC(C)=O)[C@@H]1[C@@H](N(Cc2cc3ccccc3o2)C(=O)c2ccc(C)cc2)c2cc(OCCCO)ccc2N1C(=O)Cc1ccc(OC)cc1 (some centres undefined) | YES |
| NC(=O)N1C(=O)C2C(C1=O)C1C=C(CCCO)C2C(c2cccs2)N1Cc1cccc(OC(F)(F)F)c1 (centres undefined) | NO |
| CC(CO)N1C(=O)[C@@H]2[C@H]3C(=O)OCC=C[C@H]3OC23C=CCN(C(C)(C)C)C(=O)[C@@H]13 (some centres undefined) | NO |
| Cc1ccc(S[C@]2(C(=O)NCC(F)(F)F)CC(=O)N(Cc3ccccc3)[C@@H]2c2ccc(CO)cc2I)cc1 | NO |
| CN(C)CCCCNC(=O)[C@@H]1C[C@@H]2C(=O)N[C@@H](Cc3ccccc3)C(=O)N2[C@@H]1c1cccc(OCCO)c1 | YES |
| O=C(NCC(F)(F)F)[C@@H]1c2ccccc2C(=O)N(Cc2cc(F)cc(C(F)(F)F)c2)[C@H]1c1ccc(CO)cc1 | NO |
| COC(=O)c1cn(C[C@@H](Cc2ccccc2)NC(=O)N[C@H](CO)CCc2oc(C(C)=O)c(C(=O)OC)c2C(=O)OC)nn1 | YES |
| C=C(COC)C(=O)CC[C@@H](OC(=O)c1cccnc1)c1ccc(OCCO)cc1 | NO |
| C=C(COC)/C(=C/C[C@H](OC(=O)c1ccncc1)c1ccccc1OCCO)c1cnc2ccccc2c1 | NO |
| CO[C@H]1O[C@H](CO)[C@@H](OC(=O)Nc2ccccc2-c2ccccc2)[C@H](OC(=O)Nc2ccc3c(c2)OCO3)[C@H]1OC(=O)Nc1ccc2c(c1)OCO2 | YES |
| CCOC(=O)C1=CC[C@@H](c2ccc(OCc3ccccc3)c(OC)c2)N(S(=O)(=O)c2ccc(C)cc2)[C@H]1c1ccc(SC)cc1 | NO |
